# Tested on: K-562 leukemia
# EXPERIMENT: NCI tumour cell line growth inhibition, 48 h

{"COMPOUND": "O=C1OC[C@@H]2Cc3c([nH]c4ccccc34)[C@@H](c3ccc(O)cc3)N12", "UNIT ABBREVIATION": "µM", "VALUE RELATION SIGN": ">", "TGI": 75.2}
{"COMPOUND": "Cc1cccc(N(CCC#N)S(=O)(=O)c2ccccc2)c1", "UNIT ABBREVIATION": "µM", "VALUE RELATION SIGN": ">", "TGI": 100}
{"COMPOUND": "O=C1N[C@@H]2c3c(csc3Br)C(=O)[C@@H]2O1", "UNIT ABBREVIATION": "µM", "VALUE RELATION SIGN": "=", "TGI": 53.4}
{"COMPOUND": "Cc1nc2ccc([N+](=O)[O-])cc2c(=O)n1C(=S)Nc1cccc(Cl)c1", "UNIT ABBREVIATION": "µM", "VALUE RELATION SIGN": "=", "TGI": 98.5}
{"COMPOUND": "Cc1cc(C)nc(NS(=O)(=O)c2ccc(NC(=O)c3cccc4c(=O)c5ccccc5[nH]c34)cc2)n1", "UNIT ABBREVIATION": "µM", "VALUE RELATION SIGN": "=", "TGI": 90.3}
{"COMPOUND": "c1ccc(N=c2snc(-c3ccccc3)s2)cc1", "UNIT ABBREVIATION": "µM", "VALUE RELATION SIGN": ">", "TGI": 100}
{"COMPOUND": "COC(=O)C1CC(C=[N+](C)C)=C(SC)N1 (stereo unspecified)", "UNIT ABBREVIATION": "µM", "VALUE RELATION SIGN": ">", "TGI": 100}
{"COMPOUND": "CC[n+]1ccc2c(c1)C(=O)c1nccc3c1c-2nc1ccccc13", "UNIT ABBREVIATION": "µM", "VALUE RELATION SIGN": "=", "TGI": 22.2}
{"COMPOUND": "COC(=O)c1c2c(c(C)[n+]([O-])c1C)C(=O)C=CC2=O", "UNIT ABBREVIATION": "µM", "VALUE RELATION SIGN": "=", "TGI": 36}
{"COMPOUND": "Brc1ccc2c3c1[C@@H]1O[C@@H]1c1cccc(c1-3)[C@@H]1O[C@H]21", "UNIT ABBREVIATION": "µM", "VALUE RELATION SIGN": ">", "TGI": 100}
{"COMPOUND": "ClCc1ccccc1CSc1ncnc2nc[nH]c12", "UNIT ABBREVIATION": "µM", "VALUE RELATION SIGN": ">", "TGI": 60}

---

# System: HT29 colon
# EXPERIMENT: NCI tumour cell line growth inhibition, 48 h
# Lookup of reported TGI keyed by entry

{"MOLECULE": "CN(O)C(=O)Cc1ccc(OCc2cccc(Cl)c2)cc1", "TGI": "> 100 µM"}
{"MOLECULE": "C/C(=N\\NC(N)=S)c1ccc(C)cc1C", "TGI": "> 100 µM"}
{"MOLECULE": "CC(C)(CO)N1C(=O)c2ccccc2C1(O)c1ccc(Cl)cc1 (stereo unspecified)", "TGI": "> 100 µM"}
{"MOLECULE": "CC1=CC(=O)N(n2c(C)n[nH]c2=O)C1=O", "TGI": "> 100 µM"}
{"MOLECULE": "COc1ccc(CNc2nc3ccc(C(F)(F)F)cc3nc2-c2ccccc2)cc1OC", "TGI": "> 100 µM"}
{"MOLECULE": "O=[n+]1c(CBr)c(CBr)n([O-])c2ccccc21", "TGI": "3.49 µM"}
{"MOLECULE": "COc1cc2c(NCCCCCCO[N+](=O)[O-])ncnc2c(OC)c1OC", "TGI": "> 62 µM"}
{"MOLECULE": "O=C1OC[C@@H]2Cc3c([nH]c4ccccc34)[C@@H](c3ccc(O)cc3)N12", "TGI": "98.4 µM"}
{"MOLECULE": "CCOc1ccc2nc(NC(=O)/C(CC(=O)CC(C3=C(O)c4ccccc4CC3=O)c3ccccc3)=N\\O)sc2c1 (stereo unspecified)", "TGI": "> 100 µM"}
{"MOLECULE": "COc1cc2c(cc1OC)C1C=NC(C(=O)O)(C2)c2ccccc21 (stereo unspecified)", "TGI": "> 100 µM"}
{"MOLECULE": "C(=Nc1ccc(-c2nc3ccccc3s2)cc1)c1ccco1", "TGI": "> 100 µM"}
